Measured Enzyme Activity Endpoint Assay (purified): Fc, listed per entry for reference.
- System Name: pooled human IgG
The figure you give is taken to be in ng/µL; do not add the unit.

| Protein | Unit Annotation | Data Value |
| --- | --- | --- |
| PRT-159 (protein) MANQEIRYSEVTPYHVTSVWTKGVTPPTDFIKGEDVFHAPYKAGQGWYDITKTFNGKDDLLCGAATAGNMLHWWFDQNKDQIKRYLEEHPEKQKINFNGEQMFDVKEAIDTKNHQLDSKLFEYFKEKAFPYLSTKHLGVFPDHVIDMFINGYRLSLTNHGPTPVKEGSKDPRGGIFDAVFTRGDQSKLLTSRHDFKEKNLKEISDLIKKELQEGKALGLSHTYANVRINHVINLWGADFDSNGNLKAIYVTDSDSNASIGMKKYFVGVNSAGKVAISAKEIKEDNIGAQVLGLFTLSTGQDSWNQTN | ng/µL | 184 |
| PRT-629 (protein) MQITSVWTKGVTPLTPEQFRYNNEDVIHAPYLAHQGWYDITKAFDGKDNLLCGAATAGNMLHWWFDQNKEEIEAYLKKYPEKQKIIFNNQELFDLKAAIDTKDSQTNSQLFNYFRDKAFPNLSARQLGVMPDLVLDMFINGYYLNVFKTQSTDVNRPYQDKDKRGGIFDAVFTRGDQTTLLTARHDLKNKGLNDISTIIKQELTEGRALALSHTYANVSISHVINLWGADFNAEGNLEAIYVTDSDANASIGMKKYFVGINAHGHVAISAKKIEGENIGAQVLGLFTLSSGKEIWQKLSLEHHHHHH | ng/µL | 425 |
| PRT-112 (protein) MRNATEAYAKEVPHKITSVWTKGVTPLTPEQFRYNGEDVIHAPYLANQGWYDITKTFDGKDNLLCGAATAGNMLHWWFDQNKTEIEAYLKKHPEKQKIIFNNQELFDLKAAIDTKDSQTNSALFNYFKDKAFPNLSARQLGVMPDHVLDMFINGYYLNVFKTQSTDVNRPYQDKDKRGGIFDAVFTRGDQTKLLTARHDLKNKGLNEISTLIKQELTEGKALALSHTYANVSISHVINLWGADFNAEGNLEAIYVTDSDANASIGMKKYFVGVNASGKVAISAKKIEGENIGAQVLGLFTLSSGKDIWQKLS | ng/µL | 152 |
| PRT-67 (protein) MANQEIRYSEVTPYHVTSVWTKGVTPPANFTQGEDVFHAPYVANQGWYDINKTFNGKDDLLCGAATAGNMLHWWFDQNKDQIKRYLEEHPEKQKINFNGEQMFDVKEAIDTKNHQLDSKLFEYFKEKAFPYLSTKHLGVFPDHVIDMFINGYRLSLTNHGPTPVKEGSKDPRGGIFDAVFTRGDQSKLLTSRHDFKEKNLKEISDLIKKELTEGKALGLSHTYANVRINHVINLWGADFDSNGNLKAIYVTDSDSNASIGMKKYFVGVNSAGKVAISAKEIKEDNIGAQVLGLFTLSTGQDSWNQTN | ng/µL | 78 |
| PRT-282 (protein) MVTSVWTKGVTPPAKFTQGEDVFHAPYVANQGWYDITKTFNGKDDLLCGAATAGNMLHWWFDQNKEKIEAYLKKHPDKQKIMFGDQELLDVRKVINTKGDQTNSELFNYFRDKAFPNLSARRIGVMPDLVLDMFINGYYLNVYKTQTTDVNRTYQEKDRRGGIFDAVFTRGDQSKLLTSRHDFKEKNLKEISDLIKKELTEGKALGLSHTYANVRLNHVINLWGADFDSNGNLKAIYVTDSDSNASIGMKKYFVGVNSSGKVAISAKEIKEDNIGAQVLGLFTLSTGQDSWNQTN | ng/µL | 150 |
| PRT-161 (protein) MANQEIRYSEVTPYHVTIVWTDGVKPPTDFIKGEDVFHAPYKAHQGWYDITKTFNGKDDLLCGAATAGNMLHWWFDQNKDQIKRYLEEHPEKQKINFNGEQMFDVKEAIDTKNHQLDSKLFEYFKEKAFPYLSTKHLGVFPDHVIDMFINGYRLSLTNHGPTPVKEGSKDPRGGIFDAVFTRGDQSKLLTSRHDFKEKNLKEISDLIKKELQEGKALGLSHTYANVRINHVINLWGADFDSNGNLKAIYVTDSDSNASIGMKKYFVGVNSAGKVAISAKEIKEDNIGAQVLGLFTLSTGQDSWNQTN | ng/µL | 172 |
| PRT-273 (protein) MVTSVWTKGVTPPTDFIYGEDVLHAPYKAGQGWYDITKTFNGKDNLLCGAATAGNMLHWWFDQNKEQIENYLKKHPEKQKIIFNNQELFDLKAAIDTKDSQLDSKLFEYFKEKAFPNLSTKHLGVFPDHVIDMFINGYRLSLLNHGPTPVKRGSKDKRGGIFDAVFTRGVQSKLLTNRHDLKNKTLKEISDLIKQELTEGKALGISHTYANVRINHVINLWGADFDAEGNLEAIYVTDSDTNASIGMKKYFVGVNSSGKVAISAKEIEEDNIGAQVLGLFTLSTGQDIWNQTN | ng/µL | 429 |

Query: Can you look up the measured Enzyme Activity Endpoint Assay (purified): Fc of PRT-111 (protein) MRNATEAYAKEVPHQITSVWTKGVTPPTPEQFRYNNEDVFHAPYLAHQGWYDITKTFNGKDNLLCGAATAGNMLHWWFDQNKTEIEAYLKKHPEKQKIIFNNQELFDLKAAIDTKDSQTNSQLFNYFRDKAFPNLSARQLGVMPDLVLDMFINGYYLNVFKTQSTDVNRPYQDKDKRGGIFDAVFTRGDQTTLLTNRHDLKNKGLNDISTLIKQELTEGKALALSHTYANVSISHVINLWGADFNAEGNLEAIYVTDSDANASIGMKKYFVGINSAGHVAISAKKIEGENIGAQVLGLFTLSSGKDIWQKLS for me?
Reply: 133

src = patent US20250027068
